System: Streptococcus pneumoniae
ASSAY_NAME: Antibacterial activity against Streptococcus pneumoniae
Type: functional
PROPERTY_LABEL: MIC (mg/L)
Unit mg/L implied. Number only.

Cc1c(F)c(N2CCNCC2)nc2c1c(=O)c(C(=O)O)cn2-c1ccc(F)cc1F : 0.25

// switching to the query compound
Entry N[C@H]1CCN(c2nc3c(cc2F)c(=O)c(C(=O)O)cn3C2CC2)C1 ; MIC = 0.25

* * *

ASSAY_NAME: Lethal dose was determined in OF1-strain female Swiss mice after oral administration of the drug
CONDITION_NOTES: mouse, in vivo
PROPERTY_LABEL: LD50 (mg/kg)
API: value field is a number in mg/kg; no unit string.

The cases that follow already have their LD50 on record.
NC1CCN(c2nc3c(cc2F)c(=O)c(C(=O)O)cn3-c2ccc(F)cc2F)C1 (stereo not drawn) : 2500
Cc1c(F)c(N2CC3CCC2CN3)nc2c1c(=O)c(C(=O)O)cn2-c1ccc(F)cc1F (stereo not drawn) : 2500
Cc1c(F)c(N2CC[C@H](N)C2)nc2c1c(=O)c(C(=O)O)cn2C1CC1 : 2500
Cc1c(F)c(N2CC[C@H](N)C2)nc2c1c(=O)c(C(=O)O)cn2-c1ccc(F)cc1F : 2500
CN[C@H]1CCN(c2nc3c(c(C)c2F)c(=O)c(C(=O)O)cn3-c2ccc(F)cc2F)C1 : 2500
CC(C)(C)n1cc(C(=O)O)c(=O)c2cc(F)c(N3CC4CC3CN4)nc21 (stereo not drawn) : 5000
Cc1c(F)c(N2CC[C@H](N)C2)nc2c1c(=O)c(C(=O)O)cn2-c1ccc(F)cc1 : 2500

Attention now turns to another entry.
Lookup result for Cc1c(F)c(N2CC3CC2CN3)nc2c1c(=O)c(C(=O)O)cn2C1CC1 (stereo not drawn) ; measured LD50: 1750

* * *

# ED50 per record follows
Tested on: Streptococcus pneumoniae
ASSAY_NAME: animal or person
Type: functional
CONDITION_NOTES: in Mus musculus, po, read-out: PD50
Description: Compound was tested for acute toxicity against Streptococcus pneumoniae A 9585 after oral administration of drug in mice
Express it in mg/kg; write the number only.

CN[C@H]1CCN(c2nc3c(c(C)c2F)c(=O)c(C(=O)O)cn3-c2ccc(F)cc2F)C1 : 4.1
Cc1c(F)c(N2CC[C@H](N)C2)nc2c1c(=O)c(C(=O)O)cn2-c1ccc(F)cc1F : 7.9
NC1CCN(c2nc3c(cc2F)c(=O)c(C(=O)O)cn3-c2ccc(F)cc2F)C1 (stereo not given) : 11.4
Cc1c(F)c(N2CC[C@H](N)C2)nc2c1c(=O)c(C(=O)O)cn2-c1ccc(F)cc1 : 14.4
Cc1c(F)c(N2CC[C@H](N)C2)nc2c1c(=O)c(C(=O)O)cn2C1CC1 : 19
Cc1c(F)c(N2CC3CC2CN3)nc2c1c(=O)c(C(=O)O)cn2C1CC1 (stereo not given) : 43

Next molecule, please.
Recorded result, Cc1c(F)c(N2CC3CCC2CN3)nc2c1c(=O)c(C(=O)O)cn2-c1ccc(F)cc1F (stereo not given) , ED50: 9.5

* * *

Organism: Mus musculus
CONDITION_NOTES: in vivo
Recorded measurements of AUC, one per entry
Express the result in µg·h/mL but write the number alone.

CN[C@H]1CCN(c2nc3c(c(C)c2F)c(=O)c(C(=O)O)cn3-c2ccc(F)cc2F)C1 : 32

Here is the next item to consider.
Per the records, this compound ( Cc1c(F)c(N2CC3CC2CN3)nc2c1c(=O)c(C(=O)O)cn2C(C)(C)C (configuration not stated) ) has AUC equal to 74

* * *

ASSAY_NAME: Partition coefficient (logD)
CONDITION_NOTES: octanol/water
Binarize logD at 0.4; below is yes, at or above is no.

Reference set, count: 3
Cc1c(F)c(N2CC[C@H](N)C2)nc2c1c(=O)c(C(=O)O)cn2C(C)(C)C : no
CC(C)(CF)n1cc(C(=O)O)c(=O)c2cc(F)c(N3CC[C@H](N)C3)nc21 : yes
Cc1c(F)c(N2CC[C@H](N)C2)nc2c1c(=O)c(C(=O)O)cn2-c1ccc(F)cc1F : no

API: the following record is the query input.
Just wondering, is logD of CC(C)(C)n1cc(C(=O)O)c(=O)c2cc(F)c(N3CCNCC3)nc21 below 0.4?
yes

* * *

ASSAY_NAME: in vivo
CONDITION_NOTES: mouse, plasma
PROPERTY_LABEL: Cmax (ng/mL)
Quick note: give the figure in ng/mL, leave out the unit.

The value of Cmax measured for the compound CC(C)(C)n1cc(C(=O)O)c(=O)c2cc(F)c(N3CC4CC3CN4)nc21 (centres undefined) turned out to be 10000

Sample Cc1c(F)c(N2CC3CC2CN3)nc2c1c(=O)c(C(=O)O)cn2-c1ccc(F)cc1F (centres undefined) ; Cmax observed: 20000

// Cc1c(F)c(N2CC[C@H](N)C2)nc2c1c(=O)c(C(=O)O)cn2C(C)(C)C : Cmax value = 7000

The compound identified as Cc1c(F)c(N2CC3CC2CN3)nc2c1c(=O)c(C(=O)O)cn2C(C)(C)C (centres undefined) registered its Cmax at 22000

* * *

Test system: Klebsiella pneumoniae
ASSAY_NAME: In vitro for antibacterial activity against Klebsiella pneumoniae
Assay type: functional
Quick reference for MIC among some compounds
Kindly answer with a numeric value in µg/mL, unit omitted.

O=C(O)c1cn(-c2ccc(F)cc2F)c2nc(N3CC4CC3CN4)c(F)cc2c1=O (stereo not given) : 0.008
Cc1c(F)c(N2CC3CCC2CN3)nc2c1c(=O)c(C(=O)O)cn2-c1ccc(F)cc1F (stereo not given) : 0.008
CC(C)(CF)n1cc(C(=O)O)c(=O)c2cc(F)c(N3CC[C@H](N)C3)nc21 : 0.03

// sample N[C@H]1CCN(c2nc3c(cc2F)c(=O)c(C(=O)O)cn3-c2ccc(F)cc2F)C1 , its MIC was 0.008

# MIC of Cc1c(F)c(N2CCNCC2)nc2c1c(=O)c(C(=O)O)cn2C1CC1 = 0.02

So for Cc1c(F)c(N2CC3CCC2CN3)nc2c1c(=O)c(C(=O)O)cn2C1CC1 (stereo not given) , the logged MIC turned out to be 0.016

What the record says about Cc1c(F)c(N2CC[C@H](N)C2)nc2c1c(=O)c(C(=O)O)cn2C(C)(C)C : MIC is 0.03

According to the records, this compound O=C(O)c1cn(C2CC2)c2nc(N3CCNCC3)c(F)cc2c1=O displays MIC of 0.06

Record CC(C)(C)n1cc(C(=O)O)c(=O)c2cc(F)c(N3CC4CC3CN4)nc21 (stereo not given) , field MIC: 0.02

// sample CCc1c(F)c(N2CC[C@H](N)C2)nc2c1c(=O)c(C(=O)O)cn2C1CC1 , its MIC was 0.25

* * *

Test system: Streptococcus pneumoniae
ASSAY_NAME: Antibacterial activity against Streptococcus pneumoniae
Type: functional
Listing: MIC of selected molecules
Give your result in µg/mL as a bare value.

Here are 6 molecules together with their reported answers.
Cc1c(F)c(N2CC[C@H](N)C2)nc2c1c(=O)c(C(=O)O)cn2C(C)(C)C : 0.25
Cc1c(F)c(N2CC[C@H](N)C2)nc2c1c(=O)c(C(=O)O)cn2C(C)(C)CF : 2
NC1CCN(c2nc3c(cc2F)c(=O)c(C(=O)O)cn3-c2ccc(F)cc2F)C1 (stereo not drawn) : 0.06
Cc1c(F)c(N2CC3CC2CN3)nc2c1c(=O)c(C(=O)O)cn2C1CC1 (stereo not drawn) : 0.13
CCc1c(F)c(N2CCNCC2)nc2c1c(=O)c(C(=O)O)cn2C1CC1 : 0.25
CC(C)(C)n1cc(C(=O)O)c(=O)c2cc(F)c(N3CCNCC3)nc21 : 1

Lab note: N[C@H]1CCN(c2nc3c(cc2F)c(=O)c(C(=O)O)cn3-c2ccc(F)cc2F)C1 gave MIC of 0.06

Noted for Cc1c(F)c(N2CC3CC2CN3)nc2c1c(=O)c(C(=O)O)cn2-c1ccc(F)cc1F (stereo not drawn) : its MIC reads 0.06

MIC for CC(C)(C)n1cc(C(=O)O)c(=O)c2cc(F)c(N3CC[C@H](N)C3)nc21 is 0.008

Kindly note the recorded MIC for Cc1c(F)c(N2CCNCC2)nc2c1c(=O)c(C(=O)O)cn2C(C)(C)C , which is 1

molecule O=C(O)c1cn(C2CC2)c2cc(N3CCNCC3)c(F)cc2c1=O , MIC observed: 0.25

Per the records, this molecule ( Cc1c(F)c(N2CC3CCC2CN3)nc2c1c(=O)c(C(=O)O)cn2-c1ccc(F)cc1F (stereo not drawn) ) has MIC equal to 0.06

Short answer for Cc1c(F)c(N2CC[C@H](N)C2)nc2c1c(=O)c(C(=O)O)cn2-c1ccc(F)cc1F : MIC was 0.03
